Target: full length active recombinant SYK enzyme (Homo sapiens)
Construct: full length active recombinant SYK enzyme (Millipore, Calif.)
Assay: Inhibition of Syk tyrosine phosphorylation activity (LANCE TR-FRET kinase assay)
Protocol: This example illustrates methods for evaluating the compounds of the invention, along with results obtained for such assays. The in vitro and in vivo human Syk activities of the inventive compounds can be determined by various procedures known in the art, such as a test for their ability to inhibit the activity of human plasma Syk. […] SYK tyrosine phosphorylation activity is measured using the LANCE™ Technology developed by Perkin Elmer Life and Analytical Sciences (Boston, Mass.). […]
pIC50: −log10 of the molar value.
assay readout: pIC50

[[record]]
structure_string = "CC(C)[C@@H](Nc1nc(Nc2ccc(-n3cccn3)cc2)c(C(N)=O)c(=O)[nH]1)C(N)=O"
assay_readout = "pIC50"
assay_result = "8.00 to 9.00"

[[record]]
structure_string = "CC(=O)N1CCN(c2ccc(Nc3nc(NC4CC4)c(C(N)=O)c(=O)[nH]3)cc2)CC1"
assay_readout = "pIC50"
assay_result = "< 6.00"

[[record]]
structure_string = "CC(C)C[C@@H](Nc1nc(Nc2cccc(-c3cccnc3)c2)c(C(N)=O)c(=O)[nH]1)C(N)=O"
assay_readout = "pIC50"
assay_result = "8.00 to 9.00"

[[record]]
structure_string = "CC[C@@H](Nc1nc(Nc2ccc(OCCOC)cc2)c(C(N)=O)c(=O)[nH]1)C(N)=O"
assay_readout = "pIC50"
assay_result = "8.00 to 9.00"

[[record]]
structure_string = "CC[C@@H](Nc1nc(Nc2cccc(OCCOC)c2)c(C(N)=O)c(=O)[nH]1)C(N)=O"
assay_readout = "pIC50"
assay_result = "8.00 to 9.00"

